# test.name: Antiplatelet aggregation activity against adenosine diphosphate-induced human platelet rich plasma assessed as inhibition of platelet aggregation by turbidimetric method
# Type: functional
# measurement.context: Homo sapiens, Platelet, Plasma
Give pIC50 for every item shown.
Answers are plain numbers, as −log10 of the molar value.

Reference set, count: 2
smiles.structure	numeric.value
CCCCCOC(=O)N1CCN(C(=O)[C@H](CCC(=O)O)NC(=O)c2cc(C(=O)NCCC)cc(-c3ccccc3)n2)CC1	4.92
CCCCOC(=O)N1CCN(C(=O)[C@H](CCC(=O)O)NC(=O)c2cc(OCC3CCN(C)CC3)cc(-c3ccccc3)n2)CC1	6.62

Field: next compound
Kindly note the recorded pIC50 for CCCCCOC(=O)N1CCN(C(=O)[C@H](CCC(=O)O)NC(=O)c2cc(O)cc(-c3ccccc3)n2)CC1 , which is 5.00

Source of measurements: ChEMBL document CHEMBL1157562
